- Organism: Homo sapiens
- experiment-summary: Selectivity index, ratio of IC50 for human recombinant MAO-A to IC50 for human recombinant MAO-B
The entries below come with measured Ratio IC50 values attached.
observed-property: Ratio IC50

{"line-notation": "COc1cc(OC)c(Br)c(-c2cc3cc(C)ccc3oc2=O)c1", "observed-property": "Ratio IC50", "result": "> 1.9"}
{"line-notation": "Cc1ccc(-c2cc3cc(OC4CCCC4)ccc3oc2=O)cc1", "observed-property": "Ratio IC50", "result": "> 6.9"}
{"line-notation": "COc1ccc2oc(=O)c(-c3ccc(C)cc3)cc2c1", "observed-property": "Ratio IC50", "result": "> 6790"}
{"line-notation": "COc1ccc(-c2cc3cc(C)ccc3oc2=O)cc1", "observed-property": "Ratio IC50", "result": "> 7660"}
{"line-notation": "Cc1ccc(-c2cc3cc(O)ccc3oc2=O)cc1", "observed-property": "Ratio IC50", "result": 372}
{"line-notation": "Cc1cccc(-c2cc3cc(C)ccc3oc2=O)c1", "observed-property": "Ratio IC50", "result": "> 6670"}
